System: HCC-15
Assay: relative viability (nuclei count vs DMSO), 5 days (fraction); higher = more cells survive
Conditions: first compound 0.05 µM
Label 1.0 when relative viability is strictly below 0.5; otherwise label 0.0.

{"molecule": "Nc1ccn([C@@H]2O[C@H](CO)[C@@H](O)[C@@H]2O)c(=O)n1 [Cytarabine] + Nc1nc2[nH]cc(CCc3ccc(C(=O)N[C@@H](CCC(=O)O)C(=O)O)cc3)c2c(=O)[nH]1 [Pemetrexed] (partner 0.2 µM)", "class-name": 1.0}
{"molecule": "COc1cc2nccc(Oc3ccc(NC(=O)Nc4cc(C)on4)c(Cl)c3)c2cc1OC [Tivozanib] + O=C(c1cc(Cc2n[nH]c(=O)c3ccccc23)ccc1F)N1CCN(C(=O)C2CC2)CC1 [Olaparib] (partner 8 µM)", "class-name": 0.0}
{"molecule": "Nc1ccn([C@@H]2O[C@H](CO)[C@@H](O)[C@@H]2O)c(=O)n1 [Cytarabine] + N=C(N)NC(=N)NCCc1ccccc1 [Phenformin] (partner 250 µM)", "class-name": 0.0}
{"molecule": "Nc1ccn([C@@H]2O[C@H](CO)[C@@H](O)[C@@H]2O)c(=O)n1 [Cytarabine] + CC(=O)c1c(C)c2cnc(Nc3ccc(N4CCNCC4)cn3)nc2n(C2CCCC2)c1=O [Palbociclib] (partner 0.5 µM)", "class-name": 0.0}
{"molecule": "Nc1ccn([C@@H]2O[C@H](CO)[C@@H](O)[C@@H]2O)c(=O)n1 [Cytarabine] + CCNC(=O)c1noc(-c2cc(C(C)C)c(O)cc2O)c1-c1ccc(CN2CCOCC2)cc1 [Luminespib] (partner 0.01 µM)", "class-name": 1.0}
{"molecule": "COc1cc2nccc(Oc3ccc(NC(=O)Nc4cc(C)on4)c(Cl)c3)c2cc1OC [Tivozanib] + CC(=O)Nc1cccc(-n2c(=O)n(C3CC3)c(=O)c3c(Nc4ccc(I)cc4F)n(C)c(=O)c(C)c32)c1 [Trametinib] (partner 0.02 µM)", "class-name": 1.0}
{"molecule": "Nc1ccn([C@@H]2O[C@H](CO)[C@@H](O)[C@@H]2O)c(=O)n1 [Cytarabine] + C[C@]1(O)C[C@@H](c2nc(-c3ccc4ccc(-c5ccccc5)nc4c3)c3c(N)nccn32)C1 [Linsitinib] (partner 1 µM)", "class-name": 0.0}
{"molecule": "Nc1ccn([C@@H]2O[C@H](CO)[C@@H](O)[C@@H]2O)c(=O)n1 [Cytarabine] + CS(=O)(=O)N1CCN(Cc2cc3nc(-c4cccc5[nH]ncc45)nc(N4CCOCC4)c3s2)CC1 [Pictilisib] (partner 1 µM)", "class-name": 0.0}

---

relative viability for assorted molecules
System: ChaGo-K-1
Test: relative viability (nuclei count vs DMSO), 5 days (fraction); higher = more cells survive
Details: first compound 0.5 µM
measured-endpoint: relative viability

{"molecule": "Nc1ccn([C@@H]2O[C@H](CO)[C@@H](O)[C@@H]2O)c(=O)n1 [Cytarabine] + CS(=O)(=O)N1CCN(Cc2cc3nc(-c4cccc5[nH]ncc45)nc(N4CCOCC4)c3s2)CC1 [Pictilisib] (partner 1 µM)", "reported-measurement": 0.401}
{"molecule": "Nc1ccn([C@@H]2O[C@H](CO)[C@@H](O)[C@@H]2O)c(=O)n1 [Cytarabine] + O=C(c1cc(Cc2n[nH]c(=O)c3ccccc23)ccc1F)N1CCN(C(=O)C2CC2)CC1 [Olaparib] (partner 8 µM)", "reported-measurement": 0.209}
{"molecule": "Nc1ccn([C@@H]2O[C@H](CO)[C@@H](O)[C@@H]2O)c(=O)n1 [Cytarabine] + CCNC(=O)c1noc(-c2cc(C(C)C)c(O)cc2O)c1-c1ccc(CN2CCOCC2)cc1 [Luminespib] (partner 0.01 µM)", "reported-measurement": 0.188}
{"molecule": "Nc1ccn([C@@H]2O[C@H](CO)[C@@H](O)[C@@H]2O)c(=O)n1 [Cytarabine] + COc1cc2c(Oc3ccc(NC(=O)C4(C(=O)Nc5ccc(F)cc5)CC4)cc3F)ccnc2cc1OCCCN1CCOCC1 [Foretinib] (partner 0.25 µM)", "reported-measurement": 0.251}
{"molecule": "Nc1ccn([C@@H]2O[C@H](CO)[C@@H](O)[C@@H]2O)c(=O)n1 [Cytarabine] + C[C@@H](Oc1cc(-c2cnn(C3CCNCC3)c2)cnc1N)c1c(Cl)ccc(F)c1Cl [Crizotinib] (partner 1 µM)", "reported-measurement": 0.358}
{"molecule": "Nc1ccn([C@@H]2O[C@H](CO)[C@@H](O)[C@@H]2O)c(=O)n1 [Cytarabine] + O=C(CCCCCCC(=O)Nc1ccccc1)NO [Vorinostat] (partner 1 µM)", "reported-measurement": 0.288}
{"molecule": "COc1cc2nccc(Oc3ccc(NC(=O)Nc4cc(C)on4)c(Cl)c3)c2cc1OC [Tivozanib] + Cc1cc(Nc2cc(N3CCN(C)CC3)nc(Sc3ccc(NC(=O)C4CC4)cc3)n2)n[nH]1 [Tozasertib] (partner 0.1 µM)", "reported-measurement": 0.186}
{"molecule": "COc1cc2nccc(Oc3ccc(NC(=O)Nc4cc(C)on4)c(Cl)c3)c2cc1OC [Tivozanib] + CCNC(=O)c1noc(-c2cc(C(C)C)c(O)cc2O)c1-c1ccc(CN2CCOCC2)cc1 [Luminespib] (partner 0.01 µM)", "reported-measurement": 0.502}
{"molecule": "Nc1ccn([C@@H]2O[C@H](CO)[C@@H](O)[C@@H]2O)c(=O)n1 [Cytarabine] + CC(C)C[C@H](NC(=O)[C@H](Cc1ccccc1)NC(=O)c1cnccn1)B(O)O [Bortezomib] (partner 0.002 µM)", "reported-measurement": 0.499}
{"molecule": "Nc1ccn([C@@H]2O[C@H](CO)[C@@H](O)[C@@H]2O)c(=O)n1 [Cytarabine] + NC(=O)Nc1cc(-c2cccc(F)c2)sc1C(=O)N[C@H]1CCCNC1 [AZD7762] (partner 0.2 µM)", "reported-measurement": 0.199}
{"molecule": "COc1cc2nccc(Oc3ccc(NC(=O)Nc4cc(C)on4)c(Cl)c3)c2cc1OC [Tivozanib] + CC(C)C[C@H](NC(=O)[C@H](Cc1ccccc1)NC(=O)c1cnccn1)B(O)O [Bortezomib] (partner 0.002 µM)", "reported-measurement": 0.935}

---

Test system: NCI-H1648
Experiment: relative viability (nuclei count vs DMSO), 5 days (fraction); higher = more cells survive
Conditions: first compound 0.0002 µM
measured-endpoint: relative viability

{"compound": "CC(=O)O[C@@]12CO[C@@H]1C[C@H](O)[C@@]1(C)C(=O)[C@H](O)C3=C(C)[C@@H](OC(=O)[C@H](O)[C@@H](NC(=O)OC(C)(C)C)c4ccccc4)C[C@@](O)([C@@H](OC(=O)c4ccccc4)[C@H]21)C3(C)C [Docetaxel] + Nc1nc2[nH]cc(CCc3ccc(C(=O)N[C@@H](CCC(=O)O)C(=O)O)cc3)c2c(=O)[nH]1 [Pemetrexed] (partner 0.2 µM)", "reported-measurement": 0.73}

---

Tested on: LU99A
Assay: relative viability (nuclei count vs DMSO), 5 days (fraction); higher = more cells survive
Details: first compound 0.253 µM

{"compound": "O=c1[nH]c2ccccc2n1C1CCN(CCCC(c2ccc(F)cc2)c2ccc(F)cc2)CC1 [Pimozide] + CC(C)C[C@H](NC(=O)[C@H](Cc1ccccc1)NC(=O)c1cnccn1)B(O)O [Bortezomib] (partner 0.002 µM)", "relative viability": 0.978}
{"compound": "Cc1cnc(-c2cnc(NCCNc3ccc(C#N)cn3)nc2-c2ccc(Cl)cc2Cl)[nH]1 + CC1(C)CCC(c2ccc(Cl)cc2)=C(CN2CCN(c3ccc(C(=O)NS(=O)(=O)c4ccc(N[C@H](CCN5CCOCC5)CSc5ccccc5)c(S(=O)(=O)C(F)(F)F)c4)cc3)CC2)C1 [Navitoclax] (partner 0.5 µM)", "relative viability": 0.808}
{"compound": "O=c1[nH]c2ccccc2n1C1CCN(CCCC(c2ccc(F)cc2)c2ccc(F)cc2)CC1 [Pimozide] + CC1(C)CCC(c2ccc(Cl)cc2)=C(CN2CCN(c3ccc(C(=O)NS(=O)(=O)c4ccc(N[C@H](CCN5CCOCC5)CSc5ccccc5)c(S(=O)(=O)C(F)(F)F)c4)cc3)CC2)C1 [Navitoclax] (partner 0.5 µM)", "relative viability": 0.772}
{"compound": "Cc1cnc(-c2cnc(NCCNc3ccc(C#N)cn3)nc2-c2ccc(Cl)cc2Cl)[nH]1 + N=C(N)NC(=N)NCCc1ccccc1 [Phenformin] (partner 250 µM)", "relative viability": 0.769}

---

Tested on: NCI-H727
Test: relative viability (nuclei count vs DMSO), 5 days (fraction); higher = more cells survive
Settings: first compound 0.02 µM
Listing: relative viability of selected compounds

{"compound": "CC(=O)O[C@@]12CO[C@@H]1C[C@H](O)[C@@]1(C)C(=O)[C@H](O)C3=C(C)[C@@H](OC(=O)[C@H](O)[C@@H](NC(=O)OC(C)(C)C)c4ccccc4)C[C@@](O)([C@@H](OC(=O)c4ccccc4)[C@H]21)C3(C)C [Docetaxel] + CC(=O)Nc1cccc(-n2c(=O)n(C3CC3)c(=O)c3c(Nc4ccc(I)cc4F)n(C)c(=O)c(C)c32)c1 [Trametinib] (partner 0.02 µM)", "relative viability": 0.339}
{"compound": "CC(=O)O[C@@]12CO[C@@H]1C[C@H](O)[C@@]1(C)C(=O)[C@H](O)C3=C(C)[C@@H](OC(=O)[C@H](O)[C@@H](NC(=O)OC(C)(C)C)c4ccccc4)C[C@@](O)([C@@H](OC(=O)c4ccccc4)[C@H]21)C3(C)C [Docetaxel] + COc1cccc2cc(-c3nc([C@H]4CC[C@H](C(=O)O)CC4)n4ncnc(N)c34)[nH]c12 [OSI-027] (partner 0.5 µM)", "relative viability": 0.361}
{"compound": "CC(=O)O[C@@]12CO[C@@H]1C[C@H](O)[C@@]1(C)C(=O)[C@H](O)C3=C(C)[C@@H](OC(=O)[C@H](O)[C@@H](NC(=O)OC(C)(C)C)c4ccccc4)C[C@@](O)([C@@H](OC(=O)c4ccccc4)[C@H]21)C3(C)C [Docetaxel] + C[C@]1(O)C[C@@H](c2nc(-c3ccc4ccc(-c5ccccc5)nc4c3)c3c(N)nccn32)C1 [Linsitinib] (partner 1 µM)", "relative viability": 0.21}
